Data origin: the supplement of paper PMC6555819

- Test system: PPARg homodimer (NR concentration 180 nM)
- measurementNotes: PBM binding z-score (relative to random genomic background probes); higher = stronger binding; sequences stand for … in GC…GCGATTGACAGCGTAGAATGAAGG
readoutType: PBM binding z-score
One number for each entry.

For every record below, what is its PBM binding z-score?
1. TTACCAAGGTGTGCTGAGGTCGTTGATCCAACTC
2. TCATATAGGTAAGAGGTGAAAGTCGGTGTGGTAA
3. AGTCAAAGTTCAGGACGAGGTGACGTAAAGCACG
4. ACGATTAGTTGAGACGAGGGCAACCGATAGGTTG

Result ::
1: 0.0378; 2: 1.73; 3: 2.73; 4: 0.155

Fill in PBM binding z-score for each of the 6 sequences listed.
1. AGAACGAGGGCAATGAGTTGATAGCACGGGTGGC
2. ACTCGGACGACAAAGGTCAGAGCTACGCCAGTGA
3. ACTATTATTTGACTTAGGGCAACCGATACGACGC
4. GCGACCGGGGCATCAGCAGGTTACCATAACTTAA
5. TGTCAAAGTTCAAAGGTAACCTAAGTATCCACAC
6. CGTCCAAGATCAGAGAGGTCAGTGAATGCCGAGT

Result ::
1. 0.0111
2. 2.37
3. 2.16
4. 0.373
5. 3
6. 2.69

Please give PBM binding z-score for each item listed below.
1. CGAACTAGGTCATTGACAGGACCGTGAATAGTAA
2. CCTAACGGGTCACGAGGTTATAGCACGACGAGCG

Result ::
[2.02, 2.3]
